The reported numbers originate from ChEMBL document CHEMBL3507680.

Could you please report measured cytotoxicity at 70.5 h for the items listed next?
# Assay details: Human HepG2 cell viability assay in 384 well format
# Type: toxicity, cell-based
# Set-up: dose 125 nL, time 70.5 hour; concentration not given beside the values
# Test context: HepG2 cells, read-out: Inhibition
# unit: % | format: bare number

Return cytotoxicity at 70.5 h for the following molecule: "COc1nccc(C(F)(F)F)c1C(=O)O"
0.892

Return cytotoxicity at 70.5 h for the following molecule: "COCC(=O)NC[C@H]1CC[C@H](c2ccnc3ncnn32)CC1"
-8.99

Return cytotoxicity at 70.5 h for the following molecule: "NC(=O)Cn1cc(NC(=O)N2CCCC2)cn1"
-29.6

Return cytotoxicity at 70.5 h for the following molecule: CC(=O)NCCc1ccc(S(=O)(=O)N(C)C(C)C(C)(C)C)s1 (stereo unspecified)
-9.01

Return cytotoxicity at 70.5 h for the following molecule: "Cn1cccc1C(=O)N1CC[C@@H]2[C@@H]1CC(=O)N2CCN1CCOCC1"
-4.61

Return cytotoxicity at 70.5 h for the following molecule: CC(=O)Nc1cccc(C(C)NCC2CCS(=O)(=O)CC2)c1 (stereo unspecified)
-3.86
